PROTOCOL NOTES: chemical genetic growth profiling, strain panel (AID 1159580);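 note: tested at 20 µM; growth read once vehicle control cultures reached saturation at 30 °C; 1 = growth at the plate median or of vehicle wells; lower values mean less growth of the strain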
CONDITION DETAILS: S. cerevisiae deletion strains, growth OD, locus YBL061C, strain skt5, hits give low values
About 2,000 (36%) of roughly 5,500 compounds were called active. About 18% were inconclusive and are not listed. The list shows a part of the results.
The compounds listed here are annotated with their normalized growth.
PROPERTY NAME: normalized growth

{"columns": ["COMPOUND", "VAL"],
 "data": [
  ["COc1c2c(cc3c1OCO3)CC[N+](C)=C2", 1.01],
  ["CCOC(=O)C1C(C=C(C)C)C1(C)C (centres undefined)", 1.01],
  ["CNCCC=C1c2ccccc2CCc2ccccc21", 0.983],
  ["NS(=O)(=O)c1cc2c(cc1C(F)(F)F)NCNS2(=O)=O", 0.996],
  ["[N-]=[N+]=CC(=O)OCC(N)C(=O)O (centres undefined)", 1.01],
  ["CN(C)CCC=C1c2ccccc2CCc2ccccc21", 0.991],
  ["COc1cc([C@@H]2c3cc4c(cc3C(O[C@@H]3O[C@@H]5CO[C@@H](c6cccs6)OC5[C@H](O)[C@H]3O)C3COC(=O)[C@@H]32)OCO4)cc(OC)c1O (some centres undefined)", 0.981],
  ["CC1=CCc2c(cc3oc(C)cc(=O)c3c2O)OC1", 0.971],
  ["CC(=O)[C@H]1CCC2C3CC=C4C[C@@H](O)CC[C@]4(C)C3CC[C@@]21C (some centres undefined)", 0.981],
  ["C[N+]1(CCCCC[N+]2(C)CCCC2)CCCC1", 0.998],
  ["CC(=O)N(O)CCCCCNC(=O)CCC(=O)N(O)CCCCCNC(=O)CCC(=O)N(O)CCCCCN", 1],
  ["COc1cc2cc[n+]3cc4c(OC)c(OC)ccc4cc3c2cc1OC", 0.971],
  ["CN(C)CCC=C1c2ccccc2C=Cc2ccccc21", 0.995],
  ["O=c1oc2ccccc2c(O)c1Cc1c(O)c2ccccc2oc1=O", 1.02],
  ["O=C1CC[C@]23C=CC(=O)NCCCCNCCCNC(=O)/C=C/c4ccc(c2c4)O[C@@H]3C1", 1.02],
  ["COc1cc2c(cc1OC)-c1cc3ccc(OC)c(OC)c3c[n+]1CC2", 0.988],
  ["Cc1cc2cc3c(C)cc(=O)oc3c(C)c2o1", 0.997],
  ["ClC(Cl)=C(c1ccc(Cl)cc1)c1ccc(Cl)cc1", 0.985],
  ["Cn1c(=O)c2[nH]c(C3CCCC3)nc2n(C)c1=O", 0.996]
]}

* * *

PROTOCOL NOTES: chemical genetic growth profiling, strain panel (AID 1159580);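 note: tested at 20 µM; growth read once vehicle control cultures reached saturation at 30 °C; 1 = growth at the plate median or of vehicle wells; lower values mean less growth of the strain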
CONDITION DETAILS: S. cerevisiae deletion strains, growth OD, locus YEL037C, strain rad23
The campaign covered roughly 5,500 compounds. About 2,000 (36%) were called active. About 18% were inconclusive and are not listed. No stated cut-off is given here; in the data, active means normalized growth mostly below about 0.91 (no sharp cut-off); inconclusive means no clear call, values can overlap the other calls; inactive means mostly above about 0.92. Some of the results follow.
Outcome codes: active, inactive

{"columns": ["MOLECULE", "LABEL VALUE"],
 "data": [
  ["CN(C)CC/C=C1/c2ccccc2COc2ccccc21", "inactive"],
  ["CCCN1C[C@H](CSC)C[C@@H]2c3cccc4[nH]cc(c34)C[C@H]21", "inactive"],
  ["COc1ccc(-c2cc(=O)c3c(OC(C)=O)cc(OC(C)=O)cc3o2)cc1", "inactive"],
  ["ClC(Cl)=C(c1ccc(Cl)cc1)c1ccc(Cl)cc1", "inactive"],
  ["CN1CCOC(c2ccccc2)c2ccccc2C1 (stereo unspecified)", "inactive"],
  ["COc1ccc(-c2cc(=O)c3cc(OC)ccc3o2)cc1", "active"],
  ["NS(=O)(=O)c1cc2c(cc1C(F)(F)F)NCNS2(=O)=O", "inactive"],
  ["Cn1nnnc1SCC1=C(C(=O)O)N2C(=O)C(NC(=O)C(O)c3ccccc3)C2SC1 (stereo unspecified)", "inactive"],
  ["CN(C)CCC=C1c2ccccc2C=Cc2ccccc21", "inactive"],
  ["CCCCCCc1ccc(O)cc1O", "inactive"],
  ["CCCCC1C(=O)N(c2ccccc2)N(c2ccccc2)C1=O", "inactive"],
  ["NCCc1ccc(O)c(O)c1", "inactive"],
  ["O=c1c(-c2ccccc2)coc2cc(O)cc(O)c12", "inactive"],
  ["COC(=O)C1=C(C)NC(C)=C(C(=O)OCCN(C)Cc2ccccc2)C1c1cccc([N+](=O)[O-])c1 (stereo unspecified)", "inactive"],
  ["CC(C)(C)C(=O)C(Oc1ccc(Cl)cc1)n1cncn1 (stereo unspecified)", "active"],
  ["O=C1CN2Cc3c(ccc(Cl)c3Cl)N=C2N1", "active"],
  ["OC1C(O)C(O)C(O)C(O)C1O (stereo unspecified)", "inactive"],
  ["COc1cc([C@@H]2c3cc4c(cc3[C@H](O)[C@H]3COC(=O)[C@@H]23)OCO4)cc(OC)c1OC", "inactive"],
  ["CC(=O)Oc1c(-c2ccccc2)oc2c(CC=C(C)C)c3c(c(OC(C)=O)c2c1=O)C=CC(C)(C)O3", "inactive"],
  ["O=c1cc(-c2ccc(O)cc2)oc2ccc(O)cc12", "inactive"],
  ["CC(=O)Nc1ccc(OC(=O)c2ccccc2O)cc1", "inactive"],
  ["CC[N+]1(C)CCCC(OC(=O)C(O)(c2ccccc2)c2ccccc2)C1 (stereo unspecified)", "inactive"],
  ["COc1cc2c3cc1Oc1cc(ccc1O)C[C@@H]1c4c(cc(OC)c(O)c4Oc4ccc(cc4)C[C@@H]3N(C)CC2)CC[N+]1(C)C", "inactive"],
  ["CC(=O)O[C@H]1C[C@@]2(C)[C@H](c3ccoc3)OC(=O)[C@H]3O[C@]32[C@@]2(C)C1[C@]1(C)C(C[C@H]2OC(C)=O)C(C)(C)[C@H](OC(C)=O)C[C@@H]1OC(C)=O (stereo partly specified)", "inactive"],
  ["CC(=O)O[C@@H]1CC2C(C)(C)C(=O)CC[C@]2(C)C2CC[C@@]3(C)[C@H](c4ccoc4)OC(=O)C4OC43[C@@]21C (stereo partly specified)", "inactive"],
  ["CC(=O)O[C@@H]1CC2C(C)(C)CCC(=O)[C@]2(C)C2CC[C@@]3(C)[C@H](c4ccoc4)OC(=O)C4OC43[C@@]21C (stereo partly specified)", "inactive"],
  ["COc1cccc(-c2cc(=O)c3ccc(OC)cc3o2)c1", "inactive"],
  ["COc1ccc(-c2cc(=O)c3c(O)c(OC)c(OC)c(OC)c3o2)cc1", "inactive"],
  ["COc1ccc(-c2coc3cc(OC(C)=O)cc(OC(C)=O)c3c2=O)cc1", "inactive"],
  ["CNCCC=C1c2ccccc2CCc2ccccc21", "inactive"],
  ["CC1(C)O[C@@H]2CC3C4C[C@H](F)C5=CC(=O)C=C[C@]5(C)[C@@]4(F)[C@@H](O)C[C@]3(C)[C@]2(C(=O)CO)O1 (stereo partly specified)", "inactive"]
]}

* * *

PROTOCOL NOTES: chemical genetic growth profiling, strain panel (AID 1159580);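 note: tested at 20 µM; growth read once vehicle control cultures reached saturation at 30 °C; 1 = growth at the plate median or of vehicle wells; lower values mean less growth of the strain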
CONDITION DETAILS: S. cerevisiae deletion strains, growth OD, locus YCL069W, strain vba3, hits give low values
The campaign covered roughly 5,500 compounds. About 2,000 (36%) were called active. Another 18% or so got no clear call; they are omitted. This is one part of the list.
Readings of normalized growth for the listed molecules
PROPERTY NAME: normalized growth

{"columns": ["MOLECULE", "VAL"],
 "data": [
  ["CN(N=O)C(=O)N[C@@H]1[C@@H](O)[C@H](O)[C@@H](CO)O[C@@H]1O", 0.974],
  ["COC(=O)C1=C(C)NC(C)=C(C(=O)OCCN(C)Cc2ccccc2)C1c1cccc([N+](=O)[O-])c1 (stereo unspecified)", 1],
  ["COCCOC(=O)C1=C(C)NC(C)=C(C(=O)OC(C)C)C1c1cccc([N+](=O)[O-])c1 (stereo unspecified)", 1.02],
  ["COc1cc2c(cc1OC)-c1cc3ccc(OC)c(OC)c3c[n+]1CC2", 0.988],
  ["CN(C)CCC=C1c2ccccc2C=Cc2ccccc21", 0.993],
  ["COc1c2c(cc3c1OCO3)CC[N+](C)=C2", 0.99]
]}

* * *

PROTOCOL NOTES: chemical genetic growth profiling, strain panel (AID 1159580);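 note: tested at 20 µM; growth read once vehicle control cultures reached saturation at 30 °C; 1 = growth at the plate median or of vehicle wells; lower values mean less growth of the strain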
CONDITION DETAILS: S. cerevisiae deletion strains, growth OD, locus YNL209W, strain ssb2, hits give low values
The campaign covered roughly 5,500 compounds. About 2,000 (36%) were called active. About 18% were inconclusive and are not listed. Some of the results follow.
// reported normalized growth per item
PROPERTY NAME: normalized growth

{"columns": ["COMPOUND", "PROPERTY NAME", "VAL"],
 "data": [
  ["O=C1CCc2cc(OCCCCc3nnnn3C3CCCCC3)ccc2N1", "normalized growth", 0.998],
  ["CC(C)(O)[C@@H]1CC[C@](C)([C@H]2[C@@H](O)C[C@@]3(C)C4C[C@H](O[C@@H]5O[C@H](CO)[C@@H](O)[C@H](O)[C@H]5O)C5C(C)(C)[C@@H](O[C@@H]6OC[C@@H](O)[C@H](O)[C@H]6O)CC[C@@]56C[C@@]46CC[C@]23C)O1 (stereo partly specified)", "normalized growth", 0.987],
  ["O=C(O)/C=C(\\CC(=O)O)C(=O)O", "normalized growth", 1],
  ["CC(=O)O[C@H]1C[C@H](O[C@H]2[C@@H](O)C[C@H](O[C@H]3[C@@H](O)C[C@H](O[C@H]4CC[C@@]5(C)C(CCC6C5C[C@@H](O)[C@]5(C)[C@@H](C7=CC(=O)OC7)CC[C@]65O)C4)O[C@@H]3C)O[C@@H]2C)O[C@H](C)[C@H]1O[C@@H]1O[C@H](CO)[C@@H](O)[C@H](O)[C@H]1O (stereo partly specified)", "normalized growth", 0.999],
  ["CC1=NCCc2c1[nH]c1cc(O)ccc21", "normalized growth", 0.988],
  ["CCC(CCC(C)[C@H]1CCC2C3CC=C4C[C@@H](O)CC[C@]4(C)C3CC[C@@]21C)C(C)C (stereo partly specified)", "normalized growth", 1.01],
  ["C/C(=C\\C(=O)OCCCCCCCCC(=O)O)C[C@@H]1OC[C@H](C[C@@H]2O[C@H]2[C@@H](C)[C@H](C)O)[C@@H](O)[C@H]1O", "normalized growth", 1],
  ["FC(F)(F)C(Cl)Br (stereo unspecified)", "normalized growth", 1.02],
  ["CC(C)(Oc1ccc(Cl)cc1)C(=O)O", "normalized growth", 1.02],
  ["COc1c(O)cccc1O", "normalized growth", 1.01],
  ["COc1c(O)cc2c(-c3ccccc3)cc(=O)oc2c1OC", "normalized growth", 0.991]
]}

From: PubChem BioAssay AID1159580
